These entries and their values trace back to ChEMBL document CHEMBL3352155.

Record form. Attribute: inhibition. Fill in for each entry.
- MEASURED_ON: DNA topoisomerase 2-alpha (Homo sapiens)
- MEASUREMENT_NOTES: Inhibition of recombinant human DNA topoisomerase 2alpha assessed as relaxation of supercoiled DNA pBR322 at 20 uM after 30 mins using ethidium bromide staining by agarose gel electrophoresis
Answer in %, number only, no unit symbol.

query: Give inhibition for Oc1cccc(-c2cc(-c3cccc(O)c3)nc(-c3cccc(O)c3)c2)c1 tested on DNA topoisomerase 2-alpha (Homo sapiens).
result: 8.3

query: Give inhibition for Oc1ccc(-c2cc(-c3ccc(O)cc3)nc(-c3cccc(O)c3)c2)cc1 tested on DNA topoisomerase 2-alpha (Homo sapiens).
result: 15.8

query: Give inhibition for Oc1ccc(-c2cc(-c3cccc(O)c3)cc(-c3ccc(O)cc3)n2)cc1 tested on DNA topoisomerase 2-alpha (Homo sapiens).
result: 48.2

query: Give inhibition for Oc1ccc(-c2cc(-c3ccccc3O)cc(-c3cccc(O)c3)n2)cc1 tested on DNA topoisomerase 2-alpha (Homo sapiens).
result: 7.4

query: Give inhibition for Oc1cccc(-c2cc(-c3ccccc3O)cc(-c3cccc(O)c3)n2)c1 tested on DNA topoisomerase 2-alpha (Homo sapiens).
result: 9.3

query: Give inhibition for Oc1ccccc1-c1cc(-c2ccccc2O)nc(-c2ccccc2O)c1 tested on DNA topoisomerase 2-alpha (Homo sapiens).
result: 10.1

query: Give inhibition for Oc1ccc(-c2cc(-c3cccc(O)c3)cc(-c3cccc(O)c3)n2)cc1 tested on DNA topoisomerase 2-alpha (Homo sapiens).
result: 3.7
